Biological target: mouse cGAS (Mus musculus, UniProt Q8C6L5)
Construct: recombinant full-length mouse cGAS in reaction buffer; His6-SUMO (N, cleaved yes); made in house; host or cells: E. coli BL21(DE3) RIL
Sequence (Q8C6L5 whole entry): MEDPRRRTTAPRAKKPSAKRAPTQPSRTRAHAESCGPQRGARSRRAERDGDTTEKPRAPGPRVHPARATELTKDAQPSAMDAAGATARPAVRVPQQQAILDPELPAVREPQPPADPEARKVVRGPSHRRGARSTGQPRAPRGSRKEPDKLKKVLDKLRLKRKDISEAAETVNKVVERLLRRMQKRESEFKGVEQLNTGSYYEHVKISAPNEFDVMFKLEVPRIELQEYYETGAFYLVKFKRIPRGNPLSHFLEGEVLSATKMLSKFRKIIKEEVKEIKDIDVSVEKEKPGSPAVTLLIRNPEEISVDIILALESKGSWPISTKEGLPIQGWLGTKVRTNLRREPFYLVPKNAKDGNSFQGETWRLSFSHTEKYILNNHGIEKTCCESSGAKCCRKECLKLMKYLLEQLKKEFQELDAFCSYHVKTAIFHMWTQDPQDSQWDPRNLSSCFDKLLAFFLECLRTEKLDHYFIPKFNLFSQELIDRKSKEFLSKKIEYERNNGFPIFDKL
Experiment: RapidFire mass spectrometry (RF-MS) cGAS enzymatic assay, cGAMP product formation
Format: biochemical
Details: Supplementary Table 2; compound 12.5 µM; read-out: % inhibition at 12.5 µM
Description: The liquid was collected at the well bottom using centrifugation for 30 s at 180×g. […] Plates were centrifuged for 30 s at 180×g to collect all liquid at the bottom of the wells. […] The solvent used for loading/washing process was an aqueous solution of 5 mM ammonium acetate, pH 10. […] All samples were analyzed using a negative ionization mode in the mass spectrometer, with a gas temperature of 350 °C, nebulizer pressure of 35 psig, gas flow rate of 15 l min^−1. […]
observable: inhibition at 12.5 µM (%)

COC(=O)C1=NN2C(=NS(=O)(=O)c3ccccc32)N1 [RU209189]	91
CC(=O)[C@]1(O)Cc2c(O)c3c(c(O)c2[C@@H](O[C@H]2C[C@H](N)[C@H](O)[C@H](C)O2)C1)C(=O)c1ccccc1C3=O [RU84314]	90
Nc1c2ccccc2nc2ccccc12 [RU431]	78
N#CCC(=O)Nc1sc2c(c1C(N)=O)CCCC2 [RU93687]	91

a: CCN(CC)CCNc1ccc(CO)c2sc3ccccc3c(=O)c12 [RU869]
b: O=C(COc1ccc(Cl)c2ccccc12)Nc1ncccc1O [RU191752]
Could you check which of a and b has a smaller value for inhibition at 12.5 µM? Use the label to indicate which entry you chose. a

* * *

Target: mouse cGAS (Mus musculus, UniProt Q8C6L5)
Construct: recombinant full-length mouse cGAS in reaction buffer; His6-SUMO (N, cleaved yes); made in house; host or cells: E. coli BL21(DE3) RIL
Test: RapidFire mass spectrometry (RF-MS) cGAS enzymatic assay, cGAMP product formation
Assay type: biochemical
Conditions: Supplementary Table 2; compound 12.5 µM; read-out: % inhibition at 12.5 µM
observable: inhibition at 12.5 µM (%)

O=C1N=C(N2CCCCC2)SC1=C1C(=O)Nc2ccccc21	88
O=C(O)c1cc(O)c2c(c1)[C@@H]([C@H]1c3cc(C(=O)O)cc(O)c3C(=O)c3c(O[C@H]4O[C@H](CO)[C@@H](O)[C@H](O)[C@H]4O)cccc31)c1cccc(O[C@H]3O[C@H](CO)[C@@H](O)[C@H](O)[C@H]3O)c1C2=O	82
CC[n+]1c(-c2ccccc2)c2cc(N)ccc2c2ccc(N)cc21	97
O=C(CCl)Nc1nc(-c2c[nH]c3ccccc23)cs1	72
O=C(O)C1CSC(c2cc(Br)c(O)c(Br)c2)N1 (stereo not drawn)	87
Cc1ccc(C(=O)c2nc3c(n2O)CCCCC3)cc1	90
COc1cccc2c1C(=O)c1c(O)c3c(c(O)c1C2=O)C[C@@](O)(C(C)=O)C[C@@H]3OC1CC(N)C(O)C(C)O1 (stereo partly drawn)	93
O=c1[nH]n2c(=O)c3ccccc3nc2c2ccccc12	90
COc1cccc2c1C(=O)c1c(O)c3c(c(O)c1C2=O)C[C@@](O)(C(=O)CO)C[C@@H]3O[C@H]1C[C@H](N)[C@@H](O)[C@H](C)O1	98
